Test system: RIVA
protocol-text: growth inhibition by drug plus 177Lu-lilotomab satetraxetan (1 - RLU/untreated control) (fraction); higher = stronger inhibition
condition-context: 10 nM; time (day): 4; 177Lu-lilotomab satetraxetan 0.5 ug/ml
Structures can show the parent of a compound that is named as a salt.
// false (0) strictly below 0.5 in growth inhibition by drug plus 177Lu-lilotomab satetraxetan; true (1) otherwise

compound	class-label
O=C(O)C(Cc1c[nH]c2ccccc12)N1C(=O)c2ccccc2C1=O (stereo not given)	false (0)

Does the reported growth inhibition by drug plus 177Lu-lilotomab satetraxetan for `CCN(CC)CCCCNc1ncc2cc(-c3cc(OC)cc(OC)c3)c(NC(=O)NC(C)(C)C)nc2n1` fall at or above the 0.5 mark?
true (1)

// same read-out, input: `COc1ccc(CCN2CCN(CCCc3ccccc3)CC2)cc1OC`
false (0)

// same read-out, input: COc1cc(Nc2c(C#N)cnc3cc(OCCCN4CCN(C)CC4)c(OC)cc23)c(Cl)cc1Cl [Bosutinib (SKI-606)]
true (1)

// same read-out, input: `COc1ccc(-c2ccc3c(N4CCOC[C@@H]4C)nc(N4CCOC[C@@H]4C)nc3n2)cc1CO`
true (1)

// same read-out, input: CC/C(=C(\c1ccccc1)c1ccc(OCCN(C)C)cc1)c1ccccc1 [Tamoxifen Citrate (Nolvadex)]
true (1)

// same read-out, input: `COc1cc2nc(N3CCCN(C)CC3)nc(NC3CCN(Cc4ccccc4)CC3)c2cc1OC`
true (1)

// same read-out, input: `CCc1cncnc1N1CCN(Cc2nc3ccc(C(F)(F)F)cc3[nH]2)CC1`
true (1)

* * *

Tested on: U-2932
protocol-text: growth inhibition by drug alone (1 - RLU/untreated control) (fraction); higher = stronger inhibition
condition-context: 10 nM; time (day): 3; 177Lu-lilotomab satetraxetan 0 ug/ml
endpoint-name: growth inhibition by drug alone
Give bare numbers.

// solved cases for growth inhibition by drug alone follow
compound	growth inhibition by drug alone
CC[C@]1(O)C[C@@H]2CN(CCc3c([nH]c4ccccc34)[C@@](C(=O)OC)(c3cc4c(cc3OC)N(C)[C@H]3[C@@](O)(C(=O)OC)[C@H](OC(C)=O)[C@]5(CC)C=CCN6CC[C@]43[C@@H]65)C2)C1 [Vinblastine]	0.125
COc1c(C)c2c(c(O)c1C/C=C(\C)CCC(=O)OCCN1CCOCC1)C(=O)OC2 [Mycophenolate mofetil (CellCept)]	0.0454
Cc1ccc(-c2csc3ncnc(SCCC(=O)O)c23)cc1	0.0174
COc1c(C)c2c(c(O)c1C/C=C(\C)CCC(=O)O)C(=O)OC2 [Mycophenolic (Mycophenolate)]	0.183

For every record below, what is its growth inhibition by drug alone?
1. O=C(O[C@@H]1Cc2c(O)cc(O)cc2O[C@@H]1c1cc(O)c(O)c(O)c1)c1cc(O)c(O)c(O)c1 [(-)-Epigallocatechin gallate]
2. CCC(CC)CC1(C(=O)Nc2ccccc2SC(=O)C(C)C)CCCCC1
3. COc1ccc(C2CC(c3ccccc3)=NN2c2ccc(S(N)(=O)=O)cc2)cc1 (stereo not drawn)
4. Nc1nc(F)nc2c1ncn2[C@@H]1O[C@H](CO)[C@@H](O)[C@@H]1O [Fludarabine (Fludara)]

1: 0.0464; 2: 0.0325; 3: 0.0454; 4: 0.0811

For every record below, what is its growth inhibition by drug alone?
1. CO[C@H]1C[C@@H]2CC[C@@H](C)[C@@](O)(O2)C(=O)C(=O)N2CCCC[C@H]2C(=O)O[C@H]([C@H](C)C[C@@H]2CC[C@@H](OC(=O)C(C)(CO)CO)[C@H](OC)C2)CC(=O)[C@H](C)/C=C(\C)[C@@H](O)[C@@H](OC)C(=O)[C@H](C)C[C@H](C)/C=C/C=C/C=C/1C [Temsirolimus (Torisel)]
2. CC(C)Oc1cc(Nc2nc(N[C@@H](C)c3ccc(F)cn3)ncc2Cl)n[nH]1
3. CN(C)c1ccccc1CN1CCCN(Cc2ccccc2N(C)C)C1c1ccncc1
4. N#Cc1c(O)c2c(-c3ccc(-c4ccccc4O)cc3)csc2[nH]c1=O

1. 0.777
2. 0.14
3. 0.0601
4. 0.111
